target_entity: Mdm2/p53 binding (Homo sapiens, UniProt Q00987, L33E)
Construct: having Mdm2 amino acids at positions 25 to 108
Sequence (Q00987 25-108 L33E, species assumed): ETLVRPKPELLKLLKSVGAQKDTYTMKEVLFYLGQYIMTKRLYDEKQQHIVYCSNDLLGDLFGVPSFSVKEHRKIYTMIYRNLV
experiment_description: Mdm2/p53 binding assay (HTRF, His-p53 / GST-Mdm2)
assay_context: His-p53 (aa 1-132) and GST-Mdm2 (aa 25-108, L33E), 6.25 nM each; 25° C., 1 hour
Experimental: Next, a test compound was diluted with protein buffer solution containing 10% DMSO, and this test compound dilution was added in an amount of 4 μL/well to the plate. […] The R value calculated from the well supplemented with His-p53, GST-Mdm2, the test compound, and each antibody was defined as R (sample). The R value calculated from the well supplemented with His-p53, GST-Mdm2, and each antibody but without the test compound was defined as R (control). […] T/C was calculated from the formula shown below. […]
pIC50: −log10 of the molar value.
measured_attribute: pIC50

Please review the entries below; each comes with its answer.
* CC(C)C1=C(C(=O)N2[C@H](C)CC[C@H]2C(=O)N2CCN(CCO)[C@H](C)C2)SC2=N[C@@](C)(c3ccc(Cl)cc3)[C@@H](c3ccc(Cl)cc3)N21 | 7.72
* CC[C@@H]1CC[C@@H](C(=O)N2C[C@@H](C)N[C@@H](C)C2)N1C(=O)C1=C(C(C)C)N2C(=N[C@@](C)(c3ccc(Cl)cc3)[C@H]2c2ccc(Cl)cc2)S1 | 7.74

A: CCCCC[C@]1(C)N=C2SC(C(=O)N3CCC[C@H]3C(=O)N(C)C)=C(C(C)C)N2[C@@H]1c1ccc(Cl)cc1 (relative stereo) [Example 99 (Cis-Isomer)]
B: CC(C)C1=C(C(=O)N2[C@H](C)CC[C@H]2C(=O)N2C[C@@H](N)[C@H](F)C2)SC2=N[C@@](C)(c3ccc(Cl)cc3)[C@@H](c3ccc(Cl)cc3)N21
C: CC(C)C1=C(C(=O)N(C)C)SC2=N[C@@](C)(c3ccc(Cl)nc3)[C@@H](c3ccc(Cl)cc3)N21
D: CC(C)C1=C(C(=O)N(C(C)C)[C@H]2C[C@H](N(C)C)C2)SC2=N[C@@](C)(c3ccc(Cl)cc3)[C@@H](c3ccc(Cl)cc3)N21
In: Give the ascending ranking of the items by reported pIC50. Would you mind listing the labels in the order requested?
Out: A, C, B, D
(A: 6.71, C: 7.12, B: 7.89, D: 8.40)

* * *

target_entity: Mdm2/p53 binding (Homo sapiens, UniProt Q00987, L33E)
Construct: having Mdm2 amino acids at positions 25 to 108
experiment_description: Mdm2/p53 binding assay (HTRF, His-p53 / GST-Mdm2)
assay_context: His-p53 (aa 1-132) and GST-Mdm2 (aa 25-108, L33E), 6.25 nM each; 25° C., 1 hour
pIC50: −log10 of the molar value.
measured_attribute: pIC50

• CC[C@@H]1CC[C@@H](C(=O)N2CCN(C(C)=O)[C@H](C)C2)N1C(=O)C1=C(C(C)C)N2C(=N[C@@](C)(c3ccc(Cl)cc3)[C@H]2c2ccc(Br)cc2)S1 [Example 155] = 7.52

a: CC(=O)N1CCN(C(=O)CN(CC(C)C)C(=O)C2=C(C(C)C)N3C(=N[C@@](C)(c4ccc(Cl)cc4)[C@H]3c3ccc(Cl)cc3)S2)CC1 [Example 88]
b: CC(C)C1=C(C(=O)N(C)[C@H]2C[C@@H](O)C2)SC2=N[C@@](C)(c3ccc(Cl)cc3)[C@@H](c3ccc(Cl)cc3)N21 [Example 164]
In: # min-compare on pIC50 between a and b To answer, give the label that identifies your chosen option.
Out: b

* * *

target_entity: Mdm2/p53 binding (Homo sapiens, UniProt Q00987, L33E)
Construct: having Mdm2 amino acids at positions 25 to 108
experiment_description: Mdm2/p53 binding assay (HTRF, His-p53 / GST-Mdm2)
assay_context: His-p53 (aa 1-132) and GST-Mdm2 (aa 25-108, L33E), 6.25 nM each; 25° C., 1 hour
measured_attribute: IC50 (nM)

• CC(C)C1=C(C(=O)N2CC[C@H]2C(=O)N(C)C)SC2=N[C@@](C)(c3ccc(Cl)cc3)[C@@H](c3ccc(Cl)cc3)N21 = 135
• CC(=O)N(C)C[C@H](C)N(C)C(=O)C1=C(C(C)C)N2C(=N[C@@](C)(c3ccc(Cl)cc3)[C@H]2c2ccc(Cl)cc2)S1 = 23
• CC(C)C1=C(C(=O)N2CCC[C@H]2COC2CCN(C)CC2)SC2=N[C@@](C)(c3ccc(Cl)cc3)[C@@H](c3ccc(Cl)cc3)N21 = 12
• CC(C)C1=C(C(=O)N(C)C)SC2=N[C@@](C)(c3ccc(Cl)cc3)[C@@H](c3ccc(Cl)cc3)N21 = 51
• CC(C)C1=C(C(=O)N2CCC[C@H]2C(=O)N2CCOCC2)SC2=N[C@@](C)(c3ccc(Cl)nc3)[C@@H](c3ccc(Cl)cc3)N21 (single isomer, unassigned; isomer b) [Example 97 (Isomer B)] = 10
• CC(C)C1=C(C(=O)N2[C@H](C)CC[C@H]2C(=O)N2CCN(C)[C@H](C)C2)SC2=N[C@@](C)(c3ccc(Cl)cc3)[C@@H](c3ccc(Cl)c(F)c3)N21 = 10
• CC(C)C1=C(C(=O)N2[C@H](C)CC[C@H]2C(=O)N2CCN(C)[C@H](C)C2)SC2=N[C@@](C)(c3ccc(Cl)cc3)[C@@H](c3ccc(C(F)(F)F)cc3)N21 = 13
• CC(C)C1=C(CN2CCNC(=O)C2)SC2=NC(C)(c3ccc(Cl)cc3)C(c3ccc(Cl)cc3)N21 (racemic) = 87
• CC(=O)N(C)[C@@H](C)CN(C)C(=O)[C@@H]1CCCN1C(=O)C1=C(C(C)C)N2C(=N[C@@](C)(c3ccc(Cl)cc3)[C@H]2c2ccc(Cl)cc2)S1 = 18

a: CC(C)C1=C(C(=O)N2[C@H](C)CC[C@H]2C(=O)N2CCN(CCO)[C@H](C)C2)SC2=N[C@@](C)(c3ccc(Cl)nc3)[C@@H](c3ccc(Cl)c(F)c3)N21
b: CNc1cc([C@]2(C)N=C3SC(C(=O)N4CCC[C@H]4C(=O)N4CCN(C)CC4)=C(C(C)C)N3[C@@H]2c2ccc(Cl)cc2)ccc1Cl
c: CC(C)C1=C(C(=O)N2CCC[C@H]2C(=O)N2CCC[C@H]2C(=O)O)SC2=N[C@@](C)(c3ccc(Cl)cc3)[C@@H](c3ccc(Cl)cc3)N21
In: Give the ascending ranking of the items by reported IC50. Would you mind listing the labels in the order requested?
Out: a, c, b
